# Procedure summary: Total clearance in Han Wistar rat
# Type: ADME, organism-based
# Test conditions: in vivo
Readout kind: clearance (mL/min/kg)

Past entries and their recorded results:
[[record]]
molecular_string = "CCCC[C@H](NC(=O)O[C@H](Cn1ccc(-c2ccc(C(F)(F)F)cc2)n1)C(C)(C)C)C(=O)CNS(=O)(=O)c1ccccn1"
unit_tag = "mL/min/kg"
assay_value = 26

[[record]]
molecular_string = "CCCC[C@H](NC(=O)O[C@H](Cn1ccc(-c2ccncc2)n1)C(C)(C)C)C(=O)CNS(=O)(=O)c1ccccn1"
unit_tag = "mL/min/kg"
assay_value = 16


[a] C[C@H](NC(=O)O[C@H](Cn1ccc(-c2ccc(C(F)(F)F)cc2)n1)C(C)(C)C)C(=O)CNS(=O)(=O)c1ccccn1
[b] CCCC[C@H](NC(=O)O[C@H](Cn1cnc(-c2ccc(C(F)(F)F)cc2)c1)C(C)(C)C)C(=O)CNS(=O)(=O)c1ccccn1
[c] CCCC[C@H](NC(=O)O[C@H](Cn1ccc(C(F)(F)F)n1)C(C)(C)C)C(=O)CNS(=O)(=O)c1ccccn1
[d] CCCC[C@H](NC(=O)O[C@H](Cn1cnc2cc(Cl)c(Cl)cc21)C(C)(C)C)C(=O)CNS(=O)(=O)c1ccccn1
Arrange the 4 molecules by rising clearance, starting with the smallest. As an answer, provide the labels arranged in the order called for.
c, d, b, a
(c: 21 mL/min/kg, d: 31 mL/min/kg, b: 47 mL/min/kg, a: 82 mL/min/kg)

---

# Target or system: UniProt:P25774
# Sequence (P25774 whole entry): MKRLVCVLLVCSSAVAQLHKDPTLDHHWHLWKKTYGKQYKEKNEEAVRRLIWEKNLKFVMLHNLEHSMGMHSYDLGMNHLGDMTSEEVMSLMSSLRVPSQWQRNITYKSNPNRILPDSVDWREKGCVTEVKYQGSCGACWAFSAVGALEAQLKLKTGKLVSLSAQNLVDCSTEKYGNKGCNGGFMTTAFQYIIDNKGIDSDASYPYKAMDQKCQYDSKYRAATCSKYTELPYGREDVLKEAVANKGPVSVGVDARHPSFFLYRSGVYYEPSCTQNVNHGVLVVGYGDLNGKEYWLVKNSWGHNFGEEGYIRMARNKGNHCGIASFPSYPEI
# Procedure summary: Inhibition of human recombinant cathepsin S
pIC50: −log10 of the molar value.
Readout kind: pIC50

Previously resolved entries follow.
[[record]]
molecular_string = "CCCC[C@H](NC(=O)O[C@H](Cn1cnc2cc(Cl)c(Cl)cc21)C(C)(C)C)C(=O)CNS(=O)(=O)c1ccccn1"
assay_value = 8.00

[[record]]
molecular_string = "CCCC[C@H](NC(=O)O[C@H](Cn1cnc(-c2ccc(C(F)(F)F)cc2)c1)C(C)(C)C)C(=O)CNS(=O)(=O)c1ccccn1"
assay_value = 8.00


[1] CCCC[C@H](NC(=O)O[C@H](Cn1ccc(-c2ccncc2)n1)C(C)(C)C)C(=O)CNS(=O)(=O)c1ccccn1
[2] CCCC[C@H](NC(=O)O[C@H](Cn1ccc(-c2ccc(C(F)(F)F)cc2)n1)C(C)(C)C)C(=O)CNS(=O)(=O)c1ccccn1
Pick one: 1 or 2 . Which one has the lower reported pIC50? To answer, give the label that identifies your chosen option.
2

---

# Target or system: Cathepsin K (Homo sapiens)
# Sequence (P43235 whole entry): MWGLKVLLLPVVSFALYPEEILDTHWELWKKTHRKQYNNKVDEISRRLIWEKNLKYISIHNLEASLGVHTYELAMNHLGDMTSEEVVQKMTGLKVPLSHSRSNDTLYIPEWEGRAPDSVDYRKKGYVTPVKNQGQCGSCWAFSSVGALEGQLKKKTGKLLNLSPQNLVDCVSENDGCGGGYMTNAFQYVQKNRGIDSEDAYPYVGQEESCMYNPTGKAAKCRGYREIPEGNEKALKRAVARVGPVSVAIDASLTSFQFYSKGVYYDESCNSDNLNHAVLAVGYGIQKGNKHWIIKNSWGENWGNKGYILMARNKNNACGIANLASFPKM
# Procedure summary: Inhibition of human recombinant cathepsin K
Readout kind: IC50 (nM)

[1] CCCC[C@H](NC(=O)O[C@H](Cn1cnc2cc(Cl)c(Cl)cc21)C(C)(C)C)C(=O)CNS(=O)(=O)c1ccccn1
[2] CC(C)C[C@H](NC(=O)c1cc2ccccc2o1)C(=O)N[C@@H](C)C(=O)CNS(=O)(=O)c1ccccn1
[3] CCCC[C@H](NC(=O)O[C@H](Cn1ccc(-c2ccc(C(F)(F)F)cc2)n1)C(C)(C)C)C(=O)CNc1cccc(F)n1
Order the 3 listed items from lowest to highest according to IC50. Please express your ranking as an ordered list of the labels.
3, 1, 2

---

# Procedure summary: Oral bioavailability in Han Wistar rat
# Assay type: ADME, organism-based
# Test conditions: in vivo
Readout kind: bioavailability (%)

[[record]]
molecular_string = "CCCC[C@H](NC(=O)O[C@H](Cn1ccc(-c2ccc(C(F)(F)F)cc2)n1)C(C)(C)C)C(=O)CNS(=O)(=O)c1ccccn1"
assay_value = 21


[P] CCCC[C@H](NC(=O)O[C@H](Cn1cnc(-c2ccc(C(F)(F)F)cc2)c1)C(C)(C)C)C(=O)CNS(=O)(=O)c1ccccn1
[Q] CCCC[C@H](NC(=O)O[C@H](Cn1cnc2cc(Cl)c(Cl)cc21)C(C)(C)C)C(=O)CNS(=O)(=O)c1ccccn1
# returns the entry with the larger bioavailability; inputs P and Q Selection: enter the item's label.
Q
(Q: 32%, P: 22%)

[I] CCCC[C@H](NC(=O)O[C@H](Cn1ccc(-c2ccc(C(F)(F)F)cc2)n1)C(C)(C)C)C(=O)C(=O)Nc1ccn[nH]1
[II] CCCC[C@H](NC(=O)O[C@H](Cn1ccc(-c2ccncc2)n1)C(C)(C)C)C(=O)CNS(=O)(=O)c1ccccn1
Identify the item whose bioavailability is the smaller number: I or II Respond using the label that marks the chosen record.
I

---

# Procedure summary: Apparent permeability across MDCK cells
# Type: ADME, cell-based, Canis lupus familiaris
# Test conditions: dog
Readout kind: Papp (×10⁻⁶ cm/s)

[[record]]
molecular_string = "CCCC[C@H](NC(=O)O[C@H](Cn1ccc(-c2ccc(C(F)(F)F)cc2)n1)C(C)(C)C)C(=O)C(=O)Nc1ccn[nH]1"
readout_kind = "Papp"
unit_tag = "×10⁻⁶ cm/s"
assay_value = 9.1

[[record]]
molecular_string = "C[C@H](NC(=O)O[C@H](Cn1ccc(-c2ccc(C(F)(F)F)cc2)n1)C(C)(C)C)C(=O)CNS(=O)(=O)c1ccccn1"
readout_kind = "Papp"
unit_tag = "×10⁻⁶ cm/s"
assay_value = 30

[[record]]
molecular_string = "CCCC[C@H](NC(=O)O[C@H](Cn1ccc(-c2ccc(C(F)(F)F)cc2)n1)C(C)(C)C)C(=O)CNS(=O)(=O)c1ccccn1"
readout_kind = "Papp"
unit_tag = "×10⁻⁶ cm/s"
assay_value = 16


[I] CCCC[C@H](NC(=O)O[C@H](Cn1ccc(C(F)(F)F)n1)C(C)(C)C)C(=O)CNS(=O)(=O)c1ccccn1
[II] CCCC[C@H](NC(=O)O[C@H](Cn1ccc(-c2ccncc2)n1)C(C)(C)C)C(=O)CNS(=O)(=O)c1ccccn1
Which entry has a larger number for Papp, I or II ? Write the label of whichever entry you select.
I

---

# Procedure summary: Solubility in fasted state simulated intestinal fluid at pH 6.8
# Format: physicochemical
Readout kind: solubility (µg/mL)

[[record]]
molecular_string = "CCCC[C@H](NC(=O)O[C@H](Cn1ccc(-c2ccc(C(F)(F)F)cc2)n1)C(C)(C)C)C(=O)C(=O)Nc1ccn[nH]1"
unit_tag = "µg/mL"
assay_value = 110

[[record]]
molecular_string = "CCCC[C@H](NC(=O)O[C@H](Cn1cnc(-c2ccc(C(F)(F)F)cc2)c1)C(C)(C)C)C(=O)CNS(=O)(=O)c1ccccn1"
unit_tag = "µg/mL"
assay_value = 40


[a] CCCC[C@H](NC(=O)O[C@H](Cn1cnc2cc(Cl)c(Cl)cc21)C(C)(C)C)C(=O)CNS(=O)(=O)c1ccccn1
[b] CCCC[C@H](NC(=O)O[C@H](Cn1ccc(-c2ccc(C(F)(F)F)cc2)n1)C(C)(C)C)C(=O)CNS(=O)(=O)c1ccccn1
[c] C[C@H](NC(=O)O[C@H](Cn1ccc(-c2ccc(C(F)(F)F)cc2)n1)C(C)(C)C)C(=O)CNS(=O)(=O)c1ccccn1
[d] CCCC[C@H](NC(=O)O[C@H](Cn1ccc(-c2ccncc2)n1)C(C)(C)C)C(=O)CNS(=O)(=O)c1ccccn1
Rank the items in ascending order with respect to solubility. List the labels according to the requested ordering.
a, b, d, c
(a: 28 µg/mL, b: 41 µg/mL, d: 60 µg/mL, c: 97 µg/mL)

---

# Procedure summary: Volume of distribution at steady state in Han Wistar rat
# Type: ADME, organism-based
# Test conditions: in vivo, read-out: Vdss
Readout kind: Vd (L/kg)

[[record]]
molecular_string = "CCCC[C@H](NC(=O)O[C@H](Cn1ccc(-c2ccncc2)n1)C(C)(C)C)C(=O)CNS(=O)(=O)c1ccccn1"
assay_value = 1.7

[[record]]
molecular_string = "CCCC[C@H](NC(=O)O[C@H](Cn1ccc(-c2ccc(C(F)(F)F)cc2)n1)C(C)(C)C)C(=O)C(=O)Nc1ccn[nH]1"
assay_value = 1.6

[[record]]
molecular_string = "C[C@H](NC(=O)O[C@H](Cn1ccc(-c2ccc(C(F)(F)F)cc2)n1)C(C)(C)C)C(=O)CNS(=O)(=O)c1ccccn1"
assay_value = 1.8


---

# Target or system: Cathepsin B (Homo sapiens, UniProt P07858)
# Procedure summary: Inhibition of human recombinant cathepsin B
pIC50: −log10 of the molar value.
Readout kind: pIC50

[a] CCCC[C@H](NC(=O)O[C@H](Cn1cnc2cc(Cl)c(Cl)cc21)C(C)(C)C)C(=O)CNS(=O)(=O)c1ccccn1
[b] CCCC[C@H](NC(=O)O[C@H](Cn1ccc(-c2ccc(C(F)(F)F)cc2)n1)C(C)(C)C)C(=O)CNS(=O)(=O)c1ccccn1
[c] C[C@H](NC(=O)O[C@H](Cn1ccc(-c2ccc(C(F)(F)F)cc2)n1)C(C)(C)C)C(=O)CNS(=O)(=O)c1ccccn1
[d] C[C@H](NC(=O)O[C@H](Cn1cnc2cc(Cl)c(Cl)cc21)C(C)(C)C)C(=O)CNS(=O)(=O)c1ccccn1
Order the items by recorded pIC50; the first position goes to the largest value. Sort the labels as requested; that list is your answer.
a, d, b, c
(a: 7.40, d: 7.15, b: 6.77, c: 6.51)

Sourced from ChEMBL document CHEMBL1146330
